Measurement Target: EHMT2 (Homo sapiens)
Construct: host or cells: MDA-MB-231
Method Notes: MDA-MB-231 H3K9me2 in-cell Western assay (EHMT2 ICW)
Assay type: cell-based
Condition Label: Table III; MDA-MB-231 H3K9me2 in-cell Western; read-out: EHMT2 ICW (IC50 μM)
Endpoint Label: IC50

Example compounds with recorded IC50:
The measured IC50 associated with `CNc1cc(Nc2cc(OCCCN3CCCC3)c(OC)cn2)nc(C)n1` reads 1 to 10 µM

The measured IC50 associated with `CNc1ccnc(Nc2ccc3c(C)nn(CCCN(C)C)c3c2)n1` reads > 10 µM

The measured IC50 associated with `CNc1cc(C)nc(Nc2ccc(OC)c(OC3CCN(CC4CC4)CC3)c2)n1` reads > 10 µM

The measured IC50 associated with `CCNC(=O)c1cc(Nc2nccc(NC)n2)ccc1OC` reads > 10 µM

New cases:
The measured IC50 associated with `COc1ccc(Nc2nccc(N)n2)cc1OCCCN1CCCC1` reads 1 to 10 µM

The measured IC50 associated with `CCOc1ccc(Nc2nccc(NC)n2)cc1OCCCN1CCCC1` reads > 10 µM

The measured IC50 associated with `CNc1cc(C)nc(Nc2ccc(F)c(OCCCN3CCCC3)c2)n1` reads > 10 µM

The measured IC50 associated with `CCn1nc(Nc2nccc3[nH]ccc23)cc1COCCN1CCCC1` reads > 10 µM

The measured IC50 associated with CCCN1CCC(COc2cc(Nc3nccc(NC)n3)ccc2OC)C1 (stereo not shown) reads 1 to 10 µM

====

Measurement Target: EHMT1 (Homo sapiens, UniProt Q9H9B1)
Sequence (Q9H9B1 whole entry, species assumed): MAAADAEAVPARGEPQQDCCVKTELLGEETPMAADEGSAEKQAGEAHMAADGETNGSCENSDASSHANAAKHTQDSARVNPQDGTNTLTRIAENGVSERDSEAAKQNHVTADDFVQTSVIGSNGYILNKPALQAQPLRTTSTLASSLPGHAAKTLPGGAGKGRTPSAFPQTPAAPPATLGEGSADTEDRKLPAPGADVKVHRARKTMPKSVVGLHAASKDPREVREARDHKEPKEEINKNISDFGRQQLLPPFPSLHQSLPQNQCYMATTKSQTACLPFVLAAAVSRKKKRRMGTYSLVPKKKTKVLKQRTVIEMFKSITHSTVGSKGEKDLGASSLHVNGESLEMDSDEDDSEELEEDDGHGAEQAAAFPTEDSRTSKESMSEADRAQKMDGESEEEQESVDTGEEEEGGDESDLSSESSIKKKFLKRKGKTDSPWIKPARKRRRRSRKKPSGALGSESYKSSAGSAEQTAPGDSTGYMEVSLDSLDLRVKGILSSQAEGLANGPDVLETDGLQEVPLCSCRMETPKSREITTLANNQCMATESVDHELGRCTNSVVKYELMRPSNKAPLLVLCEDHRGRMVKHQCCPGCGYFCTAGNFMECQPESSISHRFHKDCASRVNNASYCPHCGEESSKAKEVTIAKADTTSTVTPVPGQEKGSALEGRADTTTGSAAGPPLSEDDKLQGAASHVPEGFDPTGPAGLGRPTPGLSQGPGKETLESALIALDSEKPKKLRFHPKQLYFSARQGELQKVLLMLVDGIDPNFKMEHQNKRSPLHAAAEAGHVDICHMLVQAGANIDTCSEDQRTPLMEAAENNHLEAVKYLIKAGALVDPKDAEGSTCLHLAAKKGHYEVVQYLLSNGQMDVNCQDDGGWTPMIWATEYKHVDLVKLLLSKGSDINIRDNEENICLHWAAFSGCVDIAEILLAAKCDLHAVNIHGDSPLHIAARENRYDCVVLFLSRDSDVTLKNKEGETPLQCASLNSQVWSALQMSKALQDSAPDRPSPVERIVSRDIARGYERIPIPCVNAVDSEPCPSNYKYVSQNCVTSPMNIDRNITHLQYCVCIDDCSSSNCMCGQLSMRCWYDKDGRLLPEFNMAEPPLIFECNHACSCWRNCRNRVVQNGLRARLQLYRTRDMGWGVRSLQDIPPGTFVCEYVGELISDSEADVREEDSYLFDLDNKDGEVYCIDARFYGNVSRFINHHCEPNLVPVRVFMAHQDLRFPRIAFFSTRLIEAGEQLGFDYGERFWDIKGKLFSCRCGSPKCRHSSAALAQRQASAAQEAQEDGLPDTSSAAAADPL
Method Notes: EHMT1 enzyme assay on peptide substrate (EHMT1 PEP)
Format: biochemical
Condition Label: Table II; read-out: EHMT1 PEP (IC50 μM)
Endpoint Label: IC50

Example compounds with recorded IC50:
The measured IC50 associated with COc1ccc(Nc2nccc(N(C)CC3CCN(C(C)=O)CC3)n2)cc1OCCCN1CCCC1 [Compound 172] reads 1 to 10 µM

The measured IC50 associated with CCCCNc1nccc(NC2CCC(N)CC2)n1 (stereo not drawn) [Compound 70] reads > 10 µM

The measured IC50 associated with COc1ccc(Nc2nc(NCC3CCNCC3)cc(N3CCCC3)n2)cc1OCCCN1CCCC1 [Compound 103] reads 0.1 to 1 µM

The measured IC50 associated with COc1ccc(Nc2cccc(NC3CCC3)n2)cc1OCCCN1CCCC1 [Compound 35] reads 0.1 to 1 µM

The measured IC50 associated with CN1CCC(CNc2nccc(NCCNC(=O)c3ccc4c(c3)CC(=O)N4)n2)CC1 [Compound 97] reads 1 to 10 µM

Next, consider the following compound.
The measured IC50 associated with COc1ccc(Nc2nccc(-c3c(C)n[nH]c3C)n2)cc1OCCCN1CCCC1 [Compound 129] reads > 10 µM

====

Measurement Target: EHMT2 (Homo sapiens)
Construct: host or cells: MDA-MB-231
Method Notes: MDA-MB-231 H3K9me2 in-cell Western assay (EHMT2 ICW)
Assay type: cell-based
Condition Label: Table II; MDA-MB-231 H3K9me2 in-cell Western; read-out: EHMT2 ICW (IC50 μM)
Endpoint Label: IC50

Example compounds with recorded IC50:
Measured IC50 for this entry CNc1nc(Nc2ccc(OC)c(OCCCN3CCCC3)c2)ncc1C(F)(F)F [Compound 234] on EHMT2 (Homo sapiens): > 10 µM

Measured IC50 for this entry CNc1ccnc(Nc2cccc(OCCCN3CCCC3)c2)n1 [Compound 207] on EHMT2 (Homo sapiens): 1 to 10 µM

Measured IC50 for this entry COc1ccc(Nc2ncc3ncn(C)c3n2)cc1OCCCN1CCCC1 [Compound 219] on EHMT2 (Homo sapiens): > 10 µM

New cases:
Measured IC50 for this entry COc1ccc(Nc2nccc(NCCc3ccncc3)n2)cc1OCCCN1CCCC1 [Compound 39] on EHMT2 (Homo sapiens): 0.1 to 1 µM

Measured IC50 for this entry COc1cnc(Nc2ccnc(CNC3CCOCC3)c2)cc1OCCCN1CCCC1 [Compound 12] on EHMT2 (Homo sapiens): > 10 µM

====

Measured IC50 by item
Measurement Target: EHMT2 (Homo sapiens, UniProt Q96KQ7)
Construct: host or cells: MDA-MB-231
Method Notes: MDA-MB-231 H3K9me2 in-cell Western assay (EHMT2 ICW)
Format: cell-based
Condition Label: Table III; MDA-MB-231 H3K9me2 in-cell Western; read-out: EHMT2 ICW (IC50 μM)

Measured IC50 for this entry `CNc1ccnc(Nc2ccc(OC)c(OCCOC3CCCC3)c2)n1` on EHMT2 (Homo sapiens, UniProt Q96KQ7): > 10 µM

Measured IC50 for this entry CNc1ccnc(Nc2cccc(OCC(F)CN3CCCC3)c2)n1 (stereo not shown) on EHMT2 (Homo sapiens, UniProt Q96KQ7): > 10 µM

Measured IC50 for this entry `CNc1cc(C)nc(Nc2ccc(OC)c(OC[C@H]3C[C@@H](N(C)C)C3)c2)n1` on EHMT2 (Homo sapiens, UniProt Q96KQ7): 1 to 10 µM

Measured IC50 for this entry `COc1cnc(Nc2nc(C)nc3[nH]ccc23)cc1OCCCN1CCCC1` on EHMT2 (Homo sapiens, UniProt Q96KQ7): 1 to 10 µM

Measured IC50 for this entry `CNc1ccnc(Nc2ccc(OC)c(OCCCN3CCCCC3)c2)n1` on EHMT2 (Homo sapiens, UniProt Q96KQ7): 0.1 to 1 µM

Measured IC50 for this entry `CCNC(=O)c1cc(Nc2nccc(NC)n2)ccn1` on EHMT2 (Homo sapiens, UniProt Q96KQ7): > 10 µM

Measured IC50 for this entry CNc1ccnc(Nc2ccc(OC)c(OCCCN3CCCC3C)c2)n1 (stereo not shown) on EHMT2 (Homo sapiens, UniProt Q96KQ7): 1 to 10 µM

Measured IC50 for this entry `CNc1cc(C)nc(Nc2ccc(OC)c(OC[C@H]3C[C@H](N(C)C)C3)c2)n1` on EHMT2 (Homo sapiens, UniProt Q96KQ7): > 10 µM

Measured IC50 for this entry CNc1ccnc(Nc2ccc(OC)c(OCCCN3CCC(C#N)C3)c2)n1 (stereo not shown) on EHMT2 (Homo sapiens, UniProt Q96KQ7): > 10 µM

Next, consider the following compound.
Measured IC50 for this entry `CNc1ccnc(Nc2ccc(Cl)c(OCCCN3CCCC3)c2)n1` on EHMT2 (Homo sapiens, UniProt Q96KQ7): 1 to 10 µM

====

Measured IC50 by item
Measurement Target: EHMT2 (Homo sapiens)
Construct: host or cells: MDA-MB-231
Sequence (Q96KQ7 1-1210): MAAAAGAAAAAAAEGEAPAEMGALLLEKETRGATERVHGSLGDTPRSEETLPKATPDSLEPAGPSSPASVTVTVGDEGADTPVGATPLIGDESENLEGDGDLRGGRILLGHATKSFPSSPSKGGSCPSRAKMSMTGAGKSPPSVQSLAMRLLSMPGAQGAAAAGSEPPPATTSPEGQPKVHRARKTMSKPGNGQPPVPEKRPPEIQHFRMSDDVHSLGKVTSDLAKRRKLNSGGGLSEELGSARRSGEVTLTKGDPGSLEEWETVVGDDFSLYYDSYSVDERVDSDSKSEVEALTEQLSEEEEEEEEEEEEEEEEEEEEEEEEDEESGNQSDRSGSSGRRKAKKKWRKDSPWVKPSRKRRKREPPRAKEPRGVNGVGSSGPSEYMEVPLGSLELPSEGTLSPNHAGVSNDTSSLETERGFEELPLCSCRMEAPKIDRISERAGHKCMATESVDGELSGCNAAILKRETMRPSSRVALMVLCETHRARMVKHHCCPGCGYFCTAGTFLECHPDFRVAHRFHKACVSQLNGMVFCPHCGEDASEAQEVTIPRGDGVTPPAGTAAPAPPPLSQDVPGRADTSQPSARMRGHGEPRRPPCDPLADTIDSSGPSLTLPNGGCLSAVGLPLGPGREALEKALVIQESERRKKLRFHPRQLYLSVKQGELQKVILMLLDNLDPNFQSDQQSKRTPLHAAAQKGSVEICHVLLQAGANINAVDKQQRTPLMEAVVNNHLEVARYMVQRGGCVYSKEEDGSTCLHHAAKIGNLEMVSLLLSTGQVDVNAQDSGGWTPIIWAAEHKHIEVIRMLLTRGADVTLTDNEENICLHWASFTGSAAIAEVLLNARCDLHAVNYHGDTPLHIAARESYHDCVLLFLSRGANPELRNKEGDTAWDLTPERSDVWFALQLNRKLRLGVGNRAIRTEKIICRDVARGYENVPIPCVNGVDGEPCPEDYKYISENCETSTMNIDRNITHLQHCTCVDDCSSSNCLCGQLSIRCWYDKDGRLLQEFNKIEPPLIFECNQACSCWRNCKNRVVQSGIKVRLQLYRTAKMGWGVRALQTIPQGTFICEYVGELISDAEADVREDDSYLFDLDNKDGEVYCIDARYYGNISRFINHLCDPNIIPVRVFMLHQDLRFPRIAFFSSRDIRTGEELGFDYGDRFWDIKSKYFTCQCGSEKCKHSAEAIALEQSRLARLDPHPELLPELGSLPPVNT
Method Notes: MDA-MB-231 H3K9me2 in-cell Western assay (EHMT2 ICW)
Assay type: cell-based
Condition Label: Table II; MDA-MB-231 H3K9me2 in-cell Western; read-out: EHMT2 ICW (IC50 μM)

The measured IC50 associated with `COc1ccc(Nc2cccc(NC3CCC3)n2)cc1OCCCN1CCCC1` reads 0.1 to 1 µM
